Target: T1, human PCSK9 (human, UniProt Q8NBP7 31-692)
T1 construct: also called hPCSK9; huPCSK9
Experiment: PCSK9:EGFA FRET 2, competition
The binders listed here are annotated with their IC50.
Give the quantity in nM, number only.

Would you please look over these solved cases?
>>> test_result("PCSK9-PKE2 tandem 4472_E05 (designed binder, not shown: small tags and cut ends, The two parts are one polypeptide in the real molecule, joined by the undisclosed linker R; they are given here as separate chains.) PCSK9 10Fn3: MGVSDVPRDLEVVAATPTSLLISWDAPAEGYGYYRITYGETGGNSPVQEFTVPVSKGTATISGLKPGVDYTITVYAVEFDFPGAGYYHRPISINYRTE PKE2 10Fn3: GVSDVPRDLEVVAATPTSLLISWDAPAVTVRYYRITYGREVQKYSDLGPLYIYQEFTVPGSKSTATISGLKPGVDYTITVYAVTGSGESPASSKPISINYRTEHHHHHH")
4.35
>>> test_result("PCSK9-PKE2 tandem 4472_G10 (designed binder, The real molecule is ONE polypeptide: PCSK9 domain, undisclosed linker H (a code letter), PKE2 domain. It is given here as two chains because the linker letters are unknown., not shown: The inter-domain linker) PCSK9 domain: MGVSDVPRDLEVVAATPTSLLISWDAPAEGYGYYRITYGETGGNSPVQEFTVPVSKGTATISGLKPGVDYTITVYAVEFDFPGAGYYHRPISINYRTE PKE2 domain: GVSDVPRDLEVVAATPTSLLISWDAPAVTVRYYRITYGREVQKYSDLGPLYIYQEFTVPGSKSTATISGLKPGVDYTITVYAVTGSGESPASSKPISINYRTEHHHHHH")
6.81

Continue with the binder presented below.
Looking up PCSK9-PKE2 tandem 4472_H09 (designed binder, The real molecule is ONE polypeptide: PCSK9 domain, undisclosed linker C, PKE2 domain. It is given here as two chains because the linker letters are unknown., not shown: The inter-domain linker) PCSK9 domain: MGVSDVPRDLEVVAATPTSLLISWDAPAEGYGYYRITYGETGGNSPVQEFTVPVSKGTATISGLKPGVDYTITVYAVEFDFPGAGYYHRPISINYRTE PKE2 domain: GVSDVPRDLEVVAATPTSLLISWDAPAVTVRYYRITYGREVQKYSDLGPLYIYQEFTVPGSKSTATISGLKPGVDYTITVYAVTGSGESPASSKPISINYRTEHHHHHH , I see its IC50 listed as 7.17
